These entries and their values trace back to the CheMixHub viscosity set.

# PROCEDURE_TEXT: xn = mol fraction of the nth substance listed
# CONDITION_CONTEXT: 298.15 K; 101 kPa; x2 = 0.4
± gives the uncertainty stated by the source.
Readings of viscosity for the listed compounds

COMPOUND	viscosity
CCCCCCCCCO + CO	4.694 ± 0.044 mPa·s
CCCCCCCCCO + CCCCO	6.016 ± 0.058 mPa·s
CCCCCCCCCO + CCCO	5.83 ± 0.056 mPa·s
CCCCCCCCCO + CCO	5.453 ± 0.052 mPa·s

###

# PROCEDURE_TEXT: xn = mol fraction of the nth substance listed
# CONDITION_CONTEXT: 308.15 K; 101 kPa; x2 = 0.6
Readings of viscosity for the listed compounds

COMPOUND	viscosity (mPa·s)
CCCCCCCCCO + CO	2.302
CCCCCCCCCO + CCO	2.898
CCCCCCCCCO + CCCO	3.279
CCCCCCCCCO + CCCCO	3.52

###

Readings of viscosity for the listed molecules
# PROCEDURE_TEXT: xn = mol fraction of the nth substance listed
# CONDITION_CONTEXT: 308.15 K; 101 kPa; x2 = 0.55

MOLECULE	viscosity, mPa·s
CCCCCCCCCO + CCCCO	3.738
CCCCCCCCCO + CO	2.603
CCCCCCCCCO + CCO	3.182
CCCCCCCCCO + CCCO	3.525

###

# PROCEDURE_TEXT: xn = mol fraction of the nth substance listed
# CONDITION_CONTEXT: 318.15 K; 101 kPa; x2 = 0.5
Readings of viscosity for the listed compounds

COMPOUND	UNIT_TEXT	viscosity
CCCCCCCCCO + CCCCO	mPa·s	2.929
CCCCCCCCCO + CO	mPa·s	2.29
CCCCCCCCCO + CCCO	mPa·s	2.869
CCCCCCCCCO + CCO	mPa·s	2.668

###

# PROCEDURE_TEXT: xn = mol fraction of the nth substance listed
# CONDITION_CONTEXT: 318.15 K; 101 kPa; x2 = 0.6
Readings of viscosity for the listed compounds

COMPOUND	viscosity / mPa·s
CCCCCCCCCO + CCCO	2.514
CCCCCCCCCO + CO	1.841
CCCCCCCCCO + CCCCO	2.623
CCCCCCCCCO + CCO	2.261

###

# PROCEDURE_TEXT: xn = mol fraction of the nth substance listed
# CONDITION_CONTEXT: 318.15 K; 101 kPa; x2 = 0.65
Readings of viscosity for the listed compounds
READOUT_TYPE: viscosity (mPa·s)

COMPOUND	READOUT_TYPE	READING
CCCCCCCCCO + CO	viscosity	1.625
CCCCCCCCCO + CCO	viscosity	2.059
CCCCCCCCCO + CCCO	viscosity	2.337
CCCCCCCCCO + CCCCO	viscosity	2.477

###

Readings of viscosity for the listed compounds
# PROCEDURE_TEXT: xn = mol fraction of the nth substance listed
# CONDITION_CONTEXT: 298.15 K; 101 kPa; x2 = 0.75
± gives the uncertainty stated by the source.

COMPOUND	viscosity
CCCCCCCCCO + CCO	2.627 ± 0.023 mPa·s
CCCCCCCCCO + CCCCO	3.793 ± 0.035 mPa·s
CCCCCCCCCO + CO	1.807 ± 0.016 mPa·s
CCCCCCCCCO + CCCO	3.34 ± 0.031 mPa·s

###

Readings of viscosity for the listed compounds
# PROCEDURE_TEXT: xn = mol fraction of the nth substance listed
# CONDITION_CONTEXT: 308.15 K; 101 kPa; x2 = 0.2

COMPOUND	viscosity / mPa·s
CCCCCCCCCO + CCCCO	5.336
CCCCCCCCCO + CCO	5.25
CCCCCCCCCO + CCCO	5.351
CCCCCCCCCO + CO	5.013

###

# PROCEDURE_TEXT: xn = mol fraction of the nth substance listed
# CONDITION_CONTEXT: 298.15 K; 101 kPa; x2 = 0.2
READOUT_TYPE: viscosity (mPa·s)

MOLECULE	READOUT_TYPE	UNIT_TEXT	READING
CCCCCCCCCO + CCCCO	viscosity	mPa·s	7.431
CCCCCCCCCO + CCO	viscosity	mPa·s	7.247
CCCCCCCCCO + CCCO	viscosity	mPa·s	7.432
CCCCCCCCCO + CO	viscosity	mPa·s	6.793

###

Readings of viscosity for the listed compounds
# PROCEDURE_TEXT: xn = mol fraction of the nth substance listed
# CONDITION_CONTEXT: 308.15 K; 101 kPa; x2 = 0.9

COMPOUND	viscosity (mPa·s)
CCCCCCCCCO + CCCCO	2.292
CCCCCCCCCO + CCCO	1.884
CCCCCCCCCO + CCO	1.331
CCCCCCCCCO + CO	0.8198

###

# PROCEDURE_TEXT: xn = mol fraction of the nth substance listed
# CONDITION_CONTEXT: 308.15 K; 101 kPa; x2 = 0.7
Readings of viscosity for the listed compounds

COMPOUND	viscosity [mPa·s]
CCCCCCCCCO + CCO	2.345
CCCCCCCCCO + CCCO	2.798
CCCCCCCCCO + CCCCO	3.088
CCCCCCCCCO + CO	1.744

###

Readings of viscosity for the listed compounds
# PROCEDURE_TEXT: xn = mol fraction of the nth substance listed
# CONDITION_CONTEXT: 318.15 K; 101 kPa; x2 = 0.05
± gives the uncertainty stated by the source.

COMPOUND	viscosity
CCCCCCCCCO + CCCCO	4.486 ± 0.043 mPa·s
CCCCCCCCCO + CO	4.44 ± 0.042 mPa·s
CCCCCCCCCO + CCO	4.473 ± 0.043 mPa·s
CCCCCCCCCO + CCCO	4.482 ± 0.043 mPa·s

###

# PROCEDURE_TEXT: xn = mol fraction of the nth substance listed
# CONDITION_CONTEXT: 318.15 K; 101 kPa; x2 = 0.9
READOUT_TYPE: viscosity (mPa·s)

MOLECULE	UNIT_TEXT	READING
CCCCCCCCCO + CCO	mPa·s	1.094
CCCCCCCCCO + CO	mPa·s	0.6684
CCCCCCCCCO + CCCO	mPa·s	1.5
CCCCCCCCCO + CCCCO	mPa·s	1.806

###

Readings of viscosity for the listed compounds
# PROCEDURE_TEXT: xn = mol fraction of the nth substance listed
# CONDITION_CONTEXT: 308.15 K; 101 kPa; x2 = 0.95

COMPOUND	UNIT_TEXT	viscosity
CCCCCCCCCO + CCCO	mPa·s	1.668
CCCCCCCCCO + CCCCO	mPa·s	2.125
CCCCCCCCCO + CCO	mPa·s	1.108
CCCCCCCCCO + CO	mPa·s	0.6326

###

# PROCEDURE_TEXT: xn = mol fraction of the nth substance listed
# CONDITION_CONTEXT: 318.15 K; 101 kPa; x2 = 0.45
READOUT_TYPE: viscosity (mPa·s)

COMPOUND	READING
CCCCCCCCCO + CO	2.521
CCCCCCCCCO + CCO	2.871
CCCCCCCCCO + CCCO	3.046
CCCCCCCCCO + CCCCO	3.088

###

Readings of viscosity for the listed compounds
# PROCEDURE_TEXT: xn = mol fraction of the nth substance listed
# CONDITION_CONTEXT: 318.15 K; 101 kPa; x2 = 0.85

COMPOUND	UNIT_TEXT	viscosity
CCCCCCCCCO + CCO	mPa·s	1.277
CCCCCCCCCO + CCCCO	mPa·s	1.933
CCCCCCCCCO + CCCO	mPa·s	1.656
CCCCCCCCCO + CO	mPa·s	0.8404

###

Readings of viscosity for the listed compounds
# CONDITION_CONTEXT: 313.15 K; 101 kPa
READOUT_TYPE: viscosity (mPa·s)

COMPOUND	READOUT_TYPE	UNIT_TEXT	READING
CN(C)CCCO	viscosity	mPa·s	3.632
CCCCCCCC[n+]1ccn(C)c1.F[B-](F)(F)F	viscosity	mPa·s	148.8
CC(O)CN(C)C (centres undefined)	viscosity	mPa·s	0.99
O=[N+]([O-])c1ccccc1O	viscosity	mPa·s	2.755

###

# PROCEDURE_TEXT: xn = mol fraction of the nth substance listed
# CONDITION_CONTEXT: 298.15 K; 101 kPa; x2 = 0.7
Readings of viscosity for the listed molecules
READOUT_TYPE: viscosity (mPa·s)

MOLECULE	UNIT_TEXT	READING
CCCCCCCCCO + CCO	mPa·s	2.993
CCCCCCCCCO + CCCCO	mPa·s	4.091
CCCCCCCCCO + CCCO	mPa·s	3.668
CCCCCCCCCO + CO	mPa·s	2.146
